- MEASURED TARGET: T1, Recombinant human MASP1 enzyme (fragment corresponding to amino acids 297-699, C-terminal His Tag) (human, UniProt P48740 297-699)
- T1 sequence: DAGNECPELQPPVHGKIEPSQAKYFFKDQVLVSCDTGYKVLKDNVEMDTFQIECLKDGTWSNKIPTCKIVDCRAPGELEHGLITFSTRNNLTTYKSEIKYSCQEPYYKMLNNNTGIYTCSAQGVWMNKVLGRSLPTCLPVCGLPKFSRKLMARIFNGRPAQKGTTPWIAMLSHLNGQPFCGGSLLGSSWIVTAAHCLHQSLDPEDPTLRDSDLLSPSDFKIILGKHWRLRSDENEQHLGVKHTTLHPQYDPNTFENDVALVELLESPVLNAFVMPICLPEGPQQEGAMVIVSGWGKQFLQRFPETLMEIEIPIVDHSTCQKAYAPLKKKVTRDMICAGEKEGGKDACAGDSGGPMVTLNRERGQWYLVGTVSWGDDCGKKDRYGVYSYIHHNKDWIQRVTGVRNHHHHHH
- PROTOCOL: cell-based or functional assay
Numbered stars: 1 amine (or outer) side, 2 acyl side, 3 side chain; on linkers, the order of the positions; unused ones are H or OH. Bridge positions count the residues as written; N and C are the ends. Square brackets hold non-standard residues; d marks the D form. Ends that are not written are not given here. X12 = (S)‑(trifluoromethyl)‑L‑cysteine, O=C([C@H](CSC(F)(F)F)N[*:1])[*:2]; Phe(3-COOH) = N[C@@H](Cc1cccc(C(=O)O)c1)C(=O)O; Oic = O=C(O)[C@@H]1C[C@@H]2CCCC[C@@H]2N1; Pen = CC(C)(S)[C@H](N)C(=O)O; Sar = CNCC(=O)O
RECORDED ENDPOINT: human MASP1 IC50 (nM)

INSERT INTO assay_data (binder, recorded_endpoint, unit_abbreviation, endpoint_result) VALUES
  ('[Sar]ICSRS[X12]PPI[Pen]IP-NH2 (disulfide 3-11; N-terminus assumed; SMILES CC[C@H](C)[C@H](NC(=O)CNC)C(=O)N[C@H]1CSSC(C)(C)[C@@H](C(=O)N[C@H](C(=O)N2CCC[C@H]2C(N)=O)[C@@H](C)CC)NC(=O)[C@H]([C@@H](C)CC)NC(=O)[C@@H]2CCCN2C(=O)[C@@H]2CCCN2C(=O)[C@H](CSC(F)(F)F)NC(=O)[C@H](CO)NC(=O)[C@H](CCCNC(=N)N)NC(=O)[C@H](CO)NC1=O) [((N-Me)G)-IC+SRS-((S)-(trifluoromethyl)-L-cysteine)-PPI-(Pen)+IP-NH2]', 'human MASP1 IC50', 'nM', 6.1),
  ('[Sar]ICSRSLP[Oic]I[Pen]IP[Phe(3-COOH)]-NH2 (disulfide 3-11; N-terminus assumed; SMILES CC[C@H](C)[C@H](NC(=O)CNC)C(=O)N[C@H]1CSSC(C)(C)[C@@H](C(=O)N[C@H](C(=O)N2CCC[C@H]2C(=O)N[C@@H](Cc2cccc(C(=O)O)c2)C(N)=O)[C@@H](C)CC)NC(=O)[C@H]([C@@H](C)CC)NC(=O)[C@@H]2C[C@@H]3CCCC[C@@H]3N2C(=O)[C@@H]2CCCN2C(=O)[C@H](CC(C)C)NC(=O)[C@H](CO)NC(=O)[C@H](CCCNC(=N)N)NC(=O)[C@H](CO)NC1=O) [((N-Me)G)-IC+SRSLP-(Oic)-I-(Pen)+IP-((3-Carboxy)F)-NH2]', 'human MASP1 IC50', 'nM', 5);
